# assayed-target: rNav1.2 sodium channels (Rattus norvegicus, UniProt P04775)
# Construct: host or cells: HEK-293
# Sequence (P04775 whole entry): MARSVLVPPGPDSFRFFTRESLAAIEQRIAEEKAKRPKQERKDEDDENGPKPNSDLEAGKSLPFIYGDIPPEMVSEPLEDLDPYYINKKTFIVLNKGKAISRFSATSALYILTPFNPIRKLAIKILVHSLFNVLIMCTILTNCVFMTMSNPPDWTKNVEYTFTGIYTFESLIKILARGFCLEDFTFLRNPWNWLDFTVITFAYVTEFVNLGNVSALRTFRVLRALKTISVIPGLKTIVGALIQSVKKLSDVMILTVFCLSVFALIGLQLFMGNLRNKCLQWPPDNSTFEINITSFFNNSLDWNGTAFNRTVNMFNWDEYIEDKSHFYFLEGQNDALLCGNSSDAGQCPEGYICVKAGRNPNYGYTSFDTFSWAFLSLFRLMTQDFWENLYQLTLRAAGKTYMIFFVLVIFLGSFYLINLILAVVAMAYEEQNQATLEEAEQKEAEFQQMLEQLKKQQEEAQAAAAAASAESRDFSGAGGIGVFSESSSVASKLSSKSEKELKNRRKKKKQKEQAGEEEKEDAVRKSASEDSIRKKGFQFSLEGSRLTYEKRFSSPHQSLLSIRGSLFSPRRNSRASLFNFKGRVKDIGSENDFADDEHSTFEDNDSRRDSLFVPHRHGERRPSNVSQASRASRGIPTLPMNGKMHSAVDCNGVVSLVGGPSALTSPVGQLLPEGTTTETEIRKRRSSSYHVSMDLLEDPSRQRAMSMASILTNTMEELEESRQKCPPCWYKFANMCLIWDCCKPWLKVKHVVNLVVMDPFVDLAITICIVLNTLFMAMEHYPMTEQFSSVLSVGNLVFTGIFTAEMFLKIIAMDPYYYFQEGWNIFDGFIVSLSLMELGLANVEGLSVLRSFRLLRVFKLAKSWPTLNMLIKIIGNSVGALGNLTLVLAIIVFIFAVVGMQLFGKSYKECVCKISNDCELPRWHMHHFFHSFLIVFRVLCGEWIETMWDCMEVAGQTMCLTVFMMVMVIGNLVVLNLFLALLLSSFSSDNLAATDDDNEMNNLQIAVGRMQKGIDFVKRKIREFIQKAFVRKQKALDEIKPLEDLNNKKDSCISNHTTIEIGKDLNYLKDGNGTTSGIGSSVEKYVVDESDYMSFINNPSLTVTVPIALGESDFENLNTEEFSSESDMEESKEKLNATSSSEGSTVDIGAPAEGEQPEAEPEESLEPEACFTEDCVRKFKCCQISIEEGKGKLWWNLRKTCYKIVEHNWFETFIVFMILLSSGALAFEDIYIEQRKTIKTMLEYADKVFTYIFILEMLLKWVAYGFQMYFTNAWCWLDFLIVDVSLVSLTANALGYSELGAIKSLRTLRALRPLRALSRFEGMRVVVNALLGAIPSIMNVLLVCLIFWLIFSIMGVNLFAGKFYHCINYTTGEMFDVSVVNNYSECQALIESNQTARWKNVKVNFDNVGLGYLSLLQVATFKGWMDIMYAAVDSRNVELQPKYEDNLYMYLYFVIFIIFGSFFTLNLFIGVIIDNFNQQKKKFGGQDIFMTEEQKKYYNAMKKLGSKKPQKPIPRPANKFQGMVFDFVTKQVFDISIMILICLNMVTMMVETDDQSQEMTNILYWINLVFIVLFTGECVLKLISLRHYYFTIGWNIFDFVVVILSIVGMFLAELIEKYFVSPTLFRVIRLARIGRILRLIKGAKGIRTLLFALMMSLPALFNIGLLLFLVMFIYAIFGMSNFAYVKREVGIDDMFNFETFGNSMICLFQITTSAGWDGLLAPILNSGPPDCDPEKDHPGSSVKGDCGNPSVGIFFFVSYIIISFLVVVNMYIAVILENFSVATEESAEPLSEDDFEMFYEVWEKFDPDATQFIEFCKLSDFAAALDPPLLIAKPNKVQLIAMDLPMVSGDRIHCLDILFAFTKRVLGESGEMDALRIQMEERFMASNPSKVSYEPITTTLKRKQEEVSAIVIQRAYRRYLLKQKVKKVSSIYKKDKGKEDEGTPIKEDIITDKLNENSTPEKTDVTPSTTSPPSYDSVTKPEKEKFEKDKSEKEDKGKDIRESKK
# method-notes: QPatch automated patch clamp, inhibition of sodium currents evoked by 5 Hz trains at three extracellular pH values
# Assay type: cell-based
# condition-description: pH 6.0/8.6; cc 30 mM
Listing of recorded Ratio Tau Offset by entry.
endpoint: Ratio Tau Offset

1) Fc1ccc([C@@H]2CCNC[C@H]2COc2ccc3c(c2)OCO3)cc1 [paroxetine] = 1.191
2) Cc1nc2sccn2c(=O)c1CCN1CCC(=C(c2ccc(F)cc2)c2ccc(F)cc2)CC1 [ritanserin] = 0.456
3) CC12CC3CC(C)(C1)CC(N)(C3)C2 [memantine] = 1.000
4) CCc1nn(CCCN2CCN(c3cccc(Cl)c3)CC2)c(=O)n1CCOc1ccccc1 [nefazodone] = 0.825

Data origin, for the record: paper PMC4585259
